# target_under_test: Multidrug resistance-associated protein 1 (Homo sapiens)
# protocol_notes: TP_TRANSPORTER: cell accumulation in MCF7/MRP1-10 cells
# Type: functional, cell-based
property_label: IC50 (nM)
Report only the number, with the unit nM understood.

Item: O=C1c2c(O)ccc(O)c2C(=O)c2c(NCCNCCO)ccc(NCCNCCO)c21 | IC50: 1.9

###

# target_under_test: Multidrug resistance-associated protein 1 (Homo sapiens, UniProt P33527)
# Sequence (P33527 whole entry): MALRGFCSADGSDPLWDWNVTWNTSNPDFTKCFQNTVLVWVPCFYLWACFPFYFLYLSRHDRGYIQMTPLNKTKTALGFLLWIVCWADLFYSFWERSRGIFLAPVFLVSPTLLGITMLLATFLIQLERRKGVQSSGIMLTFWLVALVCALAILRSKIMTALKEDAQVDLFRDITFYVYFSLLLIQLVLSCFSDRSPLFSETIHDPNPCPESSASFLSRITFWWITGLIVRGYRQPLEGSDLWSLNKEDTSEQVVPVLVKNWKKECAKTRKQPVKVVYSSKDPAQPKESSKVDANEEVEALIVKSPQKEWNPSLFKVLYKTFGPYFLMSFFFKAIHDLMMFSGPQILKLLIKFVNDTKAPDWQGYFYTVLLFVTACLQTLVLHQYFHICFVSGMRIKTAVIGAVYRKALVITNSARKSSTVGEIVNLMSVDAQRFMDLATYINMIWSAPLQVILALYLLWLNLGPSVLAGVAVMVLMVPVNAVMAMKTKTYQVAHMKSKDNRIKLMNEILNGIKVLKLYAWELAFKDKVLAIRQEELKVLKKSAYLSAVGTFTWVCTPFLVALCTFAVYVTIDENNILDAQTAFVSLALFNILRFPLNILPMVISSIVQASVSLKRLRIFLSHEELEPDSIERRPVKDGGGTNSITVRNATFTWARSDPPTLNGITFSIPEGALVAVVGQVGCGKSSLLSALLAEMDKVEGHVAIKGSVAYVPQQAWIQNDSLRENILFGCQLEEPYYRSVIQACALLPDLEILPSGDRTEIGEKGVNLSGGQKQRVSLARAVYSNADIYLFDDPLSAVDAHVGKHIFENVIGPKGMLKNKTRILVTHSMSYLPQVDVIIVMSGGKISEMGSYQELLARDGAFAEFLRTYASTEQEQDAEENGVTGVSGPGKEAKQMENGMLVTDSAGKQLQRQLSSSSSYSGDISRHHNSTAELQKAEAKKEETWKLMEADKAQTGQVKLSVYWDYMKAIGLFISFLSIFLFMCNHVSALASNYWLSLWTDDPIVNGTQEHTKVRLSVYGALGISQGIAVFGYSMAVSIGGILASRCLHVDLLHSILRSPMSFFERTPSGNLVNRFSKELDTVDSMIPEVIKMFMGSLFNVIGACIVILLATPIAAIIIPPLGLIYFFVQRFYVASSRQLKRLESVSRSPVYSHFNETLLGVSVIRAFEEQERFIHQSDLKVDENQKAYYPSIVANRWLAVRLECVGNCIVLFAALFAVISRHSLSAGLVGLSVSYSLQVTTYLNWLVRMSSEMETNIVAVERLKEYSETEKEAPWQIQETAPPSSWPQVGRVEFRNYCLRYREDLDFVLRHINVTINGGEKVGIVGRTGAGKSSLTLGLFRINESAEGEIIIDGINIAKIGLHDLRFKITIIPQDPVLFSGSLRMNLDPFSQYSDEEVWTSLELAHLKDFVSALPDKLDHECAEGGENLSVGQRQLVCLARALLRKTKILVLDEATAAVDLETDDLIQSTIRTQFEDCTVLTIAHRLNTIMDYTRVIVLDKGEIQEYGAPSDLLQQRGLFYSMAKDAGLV
# protocol_notes: TP_TRANSPORTER: cell accumulation in MCF7/MRP1-M6 cells
# Assay type: functional, cell-based
property_label: pIC50
Answer as the number alone; pIC50 is minus log10 of concentration in mol/L.

// field: pIC50; key: O=C1c2c(O)ccc(O)c2C(=O)c2c(NCCNCCO)ccc(NCCNCCO)c21 ; value = 8.82

Origin of values: ChEMBL document CHEMBL2074176
